- TARGET_DESC: Adenosine receptor A1 (Rattus norvegicus) (UniProt P25099)
- Sequence (whole entry): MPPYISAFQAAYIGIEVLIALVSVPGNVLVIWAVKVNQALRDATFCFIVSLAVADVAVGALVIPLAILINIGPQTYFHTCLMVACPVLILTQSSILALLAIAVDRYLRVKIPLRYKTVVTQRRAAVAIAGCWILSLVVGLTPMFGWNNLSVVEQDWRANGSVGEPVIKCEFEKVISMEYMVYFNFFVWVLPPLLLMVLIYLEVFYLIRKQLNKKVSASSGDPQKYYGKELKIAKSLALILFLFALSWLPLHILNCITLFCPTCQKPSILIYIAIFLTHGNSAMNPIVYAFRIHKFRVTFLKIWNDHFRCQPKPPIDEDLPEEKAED
- MEASUREMENT_NOTES: Displacement of specific [3H](R)-PIA binding at Adenosine A1 receptor from rat brain membranes
- Type: cell membranes
- Set-up: concentration or dose not given beside the values
- STATED_CONDITIONS: Membrane; concentration not given here
RESULT_TYPE: inhibition (%)

Solved entries (count: 4):
COMPOUND	inhibition (%)
CCOCN1C(C)=C(C(=O)OCC)C(C#Cc2ccccc2)C(C(=O)OCC[Si](C)(C)C)=C1c1ccccc1 (stereo not drawn)	13
CCCO/C(O)=C1\C(C)=NC(c2ccccc2)=C(C(=O)OCc2ccccc2)C1C#Cc1ccccc1 (stereo not drawn)	21
CCO/C(O)=C1\C(C)=NC(c2ccccc2)=C(C(=O)OCc2ccc([N+](=O)[O-])cc2)C1C#Cc1ccccc1 (stereo not drawn)	29
CCO/C(O)=C1\C(C)=NC(c2ccccc2)=C(C(=O)OCc2cccc(I)c2)C1C#Cc1ccccc1 (stereo not drawn)	14

(a) CCO/C(O)=C1\C(CC)=NC(c2ccccc2)=C(C(=O)OCc2ccccc2)C1C#Cc1ccccc1 (stereo not drawn)
(b) CCOC(=O)C1=C(c2ccccc2)N=C(C)/C(=C(/O)OCC)C1C#Cc1cccc(C)c1 (stereo not drawn)
(c) CCO/C(O)=C1\C(C)=NC(c2ccccc2)=C(C(=O)OCc2ccccc2C)C1C#Cc1ccccc1 (stereo not drawn)
(d) CCO/C(O)=C1\C(C)=NC(c2ccccc2)=C(C(=O)OCc2ccc(C(=O)NCCN)cc2)C1C#Cc1ccccc1 (stereo not drawn)
List the 4 entries from lowest inhibition to highest inhibition value. Submit the labels in the order that the ranking request calls for. c, a, b, d
(c: 16%, a: 25%, b: 41%, d: 68%)
